The measurements presented in this section are drawn from ChEMBL document CHEMBL5665443.

system-name: Endonuclease 8-like 1 (Homo sapiens);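 further: fluorescence at 594 nm from quenched duplex DNA oligonucleotides released by NEIL1 cleavage and strand separation, reported as reduction of this enzyme activity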
condition-info: Compound Concentration 10.0 uM, Hit No
Where a SMILES comes first, the peptide text is derived from it. Bridges are numbered along the chain shown (N, C = ends). [ ]: non-standard residue; d: D form. Orn = NCCC[C@H](N)C(=O)O; Mpa = O=C(O)CCS
value-kind: inhibition (%)
Quick note: give the figure in %, leave out the unit.

API: value(readout= inhibition, system= Endonuclease 8-like 1 (Homo sapiens), query= `COc1cccc([C@H](O)C2CCN(CCc3ccc(F)cc3)CC2)c1OC` ) -1.98

Let us now turn to `CCCOc1ccc2[nH]cc(C3=CCNCC3)c2n1` 0.306

// repeat for `CCC(=N\O)/C(C)=C/c1ccc(F)c(C)c1` and report -2.41

Now consider CCOc1ccc(C[C@H]2NC(=O)CCSSC[C@@H](C(=O)N3CCC[C@H]3C(=O)N[C@@H](CCCN)C(=O)NCC(N)=O)NC(=O)[C@H](CC(N)=O)NC(=O)[C@H]([C@@H](C)O)NC(=O)[C@H]([C@@H](C)CC)NC2=O)cc1 ([Mpa][dY](Et)ITNCP[Orn]G-NH2; disulfide 1-6) . 4.99

---

Kindly state inhibition for each of the entries shown.
system-name: Uracil-DNA glycosylase (Homo sapiens) (UniProt P13051);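 further: UNG excision on a quenched double-stranded DNA oligo probe, with APE1 added for strand incision and turnover, read as fluorescence at 594 nm as strands separate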
Sequence (P13051 whole entry): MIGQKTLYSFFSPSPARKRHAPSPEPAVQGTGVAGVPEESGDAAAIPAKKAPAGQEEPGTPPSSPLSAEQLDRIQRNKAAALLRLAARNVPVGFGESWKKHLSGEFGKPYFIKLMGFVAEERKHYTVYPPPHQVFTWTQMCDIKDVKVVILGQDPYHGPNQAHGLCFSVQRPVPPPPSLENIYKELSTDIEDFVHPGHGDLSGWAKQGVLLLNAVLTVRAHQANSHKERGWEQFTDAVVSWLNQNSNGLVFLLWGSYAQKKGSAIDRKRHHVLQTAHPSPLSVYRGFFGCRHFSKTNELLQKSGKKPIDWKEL
condition-info: Compound Concentration 10.0 uM, Hit No
All answers are understood in %, so give the number only.

Given `CN1CCN(c2cnc3c(C4CCN(C(=O)c5ccc(OC(F)(F)F)cc5N)CC4)ncnc3c2)CC1` , state its recorded inhibition. 5.02

Note, next up: `CN[C@@H]1CCc2[nH]c3ccc(C(N)=O)cc3c2C1` -5.51

Please do the same for `CNc1nc(-c2ccc3c(N)n[nH]c3c2)cc(N2C[C@@H](C(=O)NC3CCCCC3)CC[C@H]2C)n1` as well. 5.37

Same read-out for `N#CN1CC[C@@H](C(=O)Nc2nc3c(s2)CN(C(=O)CN=[N+]=[N-])CC3)C1` ? 4.95

# repeat for `COc1ccccc1-n1nc(C2CC(C)(C)OC(C)(C)C2)cc1-c1ccc(Cl)cc1` -3.03

---

system-name: Methyl-CpG-binding domain protein 4 (Homo sapiens);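 further: MBD4 activity read as fluorescence at 594 nm from cleavage and release of a quenched duplex DNA oligonucleotide, with APE1 coupled to incise the strand and raise turnover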
condition-info: Compound Concentration 10.0 uM, Hit No
value-kind: inhibition (%)
Give the quantity in %, number only.

Query (compound): `c1ccc(Cn2c(N3CCNCC3)nc3ccccc32)cc1` ; field requested: inhibition -1.45

For `CNC[C@H](O)c1ccc(O)c(O)c1` then? 46.8

How about this compound: `O=C(c1ccc2c(ccn2-c2ccc(F)cc2)c1)N1CC(N2CCN(C(=O)c3nccs3)CC2)C1` 63.5

Similarly, `CC(=O)Nc1c(C(C)=O)c(=O)n(C)c2nc(-c3ccc(Cl)cc3Cl)c(-c3ccc(Cl)cc3)cc12` ? 61

Likewise for `CCCn1c(=O)c2[nH]c(-c3cnn(Cc4cccc(C(F)(F)F)c4)c3)nc2n(CC)c1=O` ? -7.87

Please do the same for `CCOC(=O)c1ccc(CN(Cc2ccc(-c3cccc(S(C)(=O)=O)c3)cc2)S(=O)(=O)c2c(C)cc(C)cc2C)o1` as well. 46

Next: `O=C1CC[C@@]2(O)[C@H]3Cc4ccc(O)c5c4[C@@]2(CCN3CC2CC2)[C@H]1O5` 4.42

Query `CN(C)C(=O)N[C@H]1CC[C@H](CCN2CCN(c3cccc(Cl)c3Cl)CC2)CC1` next -1.19

Then what about the compound `O=C(N[C@H]1CN2CCC1CC2)c1ccc(Cl)cc1` ? 12.6
